experimentalDetails: self-splicing fitness, log relative to wild type (ln ratio); higher = more splicing; Tetrahymena group I intron in knt gene, E. coli kanamycin selection, DiMSum; sequences stand for … in CUCUCU…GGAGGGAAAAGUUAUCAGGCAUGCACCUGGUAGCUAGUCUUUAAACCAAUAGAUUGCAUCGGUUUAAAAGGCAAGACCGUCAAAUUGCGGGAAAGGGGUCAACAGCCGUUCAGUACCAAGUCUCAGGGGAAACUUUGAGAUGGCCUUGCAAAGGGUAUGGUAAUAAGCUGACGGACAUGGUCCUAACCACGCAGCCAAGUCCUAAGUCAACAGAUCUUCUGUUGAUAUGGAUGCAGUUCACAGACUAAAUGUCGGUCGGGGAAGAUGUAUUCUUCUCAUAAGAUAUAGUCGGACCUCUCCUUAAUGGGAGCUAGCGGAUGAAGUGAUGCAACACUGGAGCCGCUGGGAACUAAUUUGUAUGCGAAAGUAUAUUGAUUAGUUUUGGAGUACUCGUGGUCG;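 further: selection with 25 µg/mL kanamycin versus none on LB agar overnight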
recordedConditions: 37 °C
# label = Criterion met if self-splicing fitness (ln) >= -1 else Criterion not met

>  <sequenceText>
ACCGAGCAAUAUUACGUCUC

>  <assignedClass>
Criterion not met

$$$$

[ask] Check if self-splicing fitness (ln) >= -1 (inclusive). Item: `GGUCAGCAAUAUUACGAUGA`
[reply] Criterion met

[ask] Say whether `AGUUAGCAAUAUUACGACUA` shows self-splicing fitness (ln) of -1 or more.
[reply] Criterion met

[ask] Could you please find out whether `CGACAGCAAUAUUACGCGAC` has self-splicing fitness (ln) that meets -1 or exceeds it?
[reply] Criterion not met

[ask] Record `CACCAGCAAUAUUACGCCUU` ; criterion: self-splicing fitness (ln) no lower than -1. Met?
[reply] Criterion not met

[ask] Tell me whether self-splicing fitness (ln) is at least -1 here: `CUUCAGCAAUAUUACGUGAA`
[reply] Criterion not met

[ask] Determine whether this sequence has self-splicing fitness (ln) no lower than -1: `AAUCAGCAAUAUUACGGGCU`
[reply] Criterion not met

----------
experimentalDetails: self-splicing fitness, log relative to wild type (ln ratio); higher = more splicing; Tetrahymena group I intron in knt gene, E. coli kanamycin selection, DiMSum; sequences stand for … in CUCUCU…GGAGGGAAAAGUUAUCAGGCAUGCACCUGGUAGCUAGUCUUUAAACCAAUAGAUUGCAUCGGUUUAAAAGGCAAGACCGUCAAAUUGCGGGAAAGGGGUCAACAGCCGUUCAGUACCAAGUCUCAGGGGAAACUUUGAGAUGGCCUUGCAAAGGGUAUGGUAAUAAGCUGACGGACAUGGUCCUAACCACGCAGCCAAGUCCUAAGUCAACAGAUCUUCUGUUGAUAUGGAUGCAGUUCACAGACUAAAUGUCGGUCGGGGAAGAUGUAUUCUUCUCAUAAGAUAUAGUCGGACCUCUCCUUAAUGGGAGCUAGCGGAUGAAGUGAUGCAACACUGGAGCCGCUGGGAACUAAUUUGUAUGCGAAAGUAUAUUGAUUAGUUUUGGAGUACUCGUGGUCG
recordedConditions: 37 °C
Assign class by self-splicing fitness (ln): not lower than -2 means class 1; lower than -2 means class 0.

Would you please look over these solved cases?
>  <sequenceText>
GAAGAGCAAUAUUACGUUAA

>  <assignedClass>
class 1

$$$$
>  <sequenceText>
ACCGAGCAAUAUUACGUAGA

>  <assignedClass>
class 0

$$$$
>  <sequenceText>
UCAAAGCAAUAUUACGAGGU

>  <assignedClass>
class 0

$$$$
>  <sequenceText>
UAGUAGCAAUAUUACGGUCA

>  <assignedClass>
class 1

$$$$
>  <sequenceText>
AAACAGCAAUAUUACGCGCC

>  <assignedClass>
class 1

$$$$
>  <sequenceText>
CCGCAGCAAUAUUACGCACG

>  <assignedClass>
class 1

$$$$
>  <sequenceText>
CGCAAGCAAUAUUACGAAAC

>  <assignedClass>
class 1

$$$$
>  <sequenceText>
ACCCAGCAAUAUUACGGUGG

>  <assignedClass>
class 0

$$$$
>  <sequenceText>
CGGAAGCAAUAUUACGCAAU

>  <assignedClass>
class 0

$$$$
>  <sequenceText>
ACUUAGCAAUAUUACGUCCC

>  <assignedClass>
class 1

$$$$

Pending sequence:
[ask] Does the reported self-splicing fitness (ln) for `UGUGAGCAAUAUUACGAGCA` fall at or above the -2 mark?
[reply] class 1
